- experimental system: T1, cynomolgus monkey CD8A on primary cynomolgus monkey CD8+ T cells (cynomolgus monkey, UniProt P01732 23-235 (human entry))
- T1 construct: also called Cyno CD8alpha
- T1 sequence (P01732 other isoform, or with tags, fused parts or gaps limits assumed): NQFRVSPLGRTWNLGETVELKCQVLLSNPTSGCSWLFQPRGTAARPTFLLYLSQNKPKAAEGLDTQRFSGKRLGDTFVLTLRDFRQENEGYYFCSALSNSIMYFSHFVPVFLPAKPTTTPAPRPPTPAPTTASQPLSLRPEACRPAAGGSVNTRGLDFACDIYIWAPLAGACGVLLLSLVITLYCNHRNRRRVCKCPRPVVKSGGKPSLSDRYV
- protocol description: flow cytometry, cyno CD8+ T cells, 0.2 uM FN3
Consider the following partition of reported Cyno T-cell Binding 0.2 uM (MFI) into named classes: lower segment: < 4000 MFI; middle segment: ≥ 4000 MFI and < 7000 MFI; upper segment: ≥ 7000 MFI

(Q) Record P282ER9P1360_C1 (designed binder, FN3 domain) LPAPKNLVVSRVTEDSARLSWTTPDAAFDSFGILYYEPVDSGEAITLPVPGSERSYDLTGLKPGTEYWVVITGVKGGAPSTPLGAIFTT — which class?
(A) upper segment

(Q) Record P282BR9P1357_G9 (designed binder, FN3 domain) LPAPKNLVVSRVTEDSARLSWPIASQIHSPFDSFLIQYQESEKVGEAIVLTVPGSERSYDLTGLKPGTEYTVSIYGVDVKYDIDSRPISSNPLSAIFTT — which class?
(A) middle segment

(Q) Record P282FR9P1361_E12 (designed binder, FN3 domain) LPAPKNLVVSRVTEDSARLSWTAPDAAFDSLGITYWESPYAGEAIVLTVPGSERSYDLTGLKPGTEYGVFILGVKGGYPSAPLSAIFTT — which class?
(A) upper segment

(Q) Record P283AR9P1362_B2 (designed binder, FN3 domain) LPAPKNLVVSRVTEDSARLSWAKHPNSFDSFLIQYQESEKVGEAIVLTVPGSERSYDLTGLKPGTEYTVSIYGVDVVVNELNNPLFSNPLSAIFTT — which class?
(A) middle segment

(Q) Record P282FR9P1361_G9 (designed binder, FN3 domain) LPAPKNLVVSRVTEDSARLSWTAPDAAFDSFGITYWESPYAGEAIVLTVPGSERSYDLTGLKPGTEYGVFILGVKGGYPSAPLSAIFTT — which class?
(A) lower segment

(Q) Record P283BR9P1363_A8 (designed binder, FN3 domain) LPAPKNLVVSRVTEDSARLSWVRSDTARFFDSFLIQYQESEKVGEAIVLTVPGSERSYDLTGLKPGTEYTVSIYGVDVKYDIDSRPISSNPLSAIFTT — which class?
(A) lower segment

(Q) Record P283AR9P1362_D7 (designed binder, FN3 domain) LPAPKNLVVSRVTEDSARLSWVKRATSFDSFLIQYQESEKVGEAIVLTVPGSERSYDLTGLKPGTEYTVSIYGVDVKYDIDSRPISSNPLSAIFTT — which class?
(A) middle segment
